# tested-target: T1, recombinant cynomolgous IL-23 (cynomolgous)
# T1 chain 1: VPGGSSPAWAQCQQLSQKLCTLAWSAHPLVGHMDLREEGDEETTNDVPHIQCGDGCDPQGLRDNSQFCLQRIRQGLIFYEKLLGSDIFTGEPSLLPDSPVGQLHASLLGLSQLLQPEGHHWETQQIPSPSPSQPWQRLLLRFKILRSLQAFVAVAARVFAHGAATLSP
# T1 chain 2: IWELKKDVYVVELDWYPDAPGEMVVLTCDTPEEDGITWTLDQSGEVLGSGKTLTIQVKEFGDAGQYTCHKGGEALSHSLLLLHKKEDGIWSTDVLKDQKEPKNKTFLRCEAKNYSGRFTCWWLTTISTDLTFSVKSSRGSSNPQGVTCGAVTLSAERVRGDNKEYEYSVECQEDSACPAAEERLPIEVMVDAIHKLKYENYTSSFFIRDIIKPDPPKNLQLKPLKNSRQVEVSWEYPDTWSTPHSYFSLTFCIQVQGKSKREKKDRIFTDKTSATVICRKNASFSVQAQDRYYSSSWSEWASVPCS
# procedure-text: cell-based or functional assay
measurement-type: IC50 (pM), IFNγ human whole blood assay

Antibody C (antibody, V domains shown, also called VH10/VL10) VH: QVQLQESGPGLVKPSQTLSLTCTVSGGSINSGGYYWSWIRQHPGKGLEWIGYIYYSGSSYYNPSLKSRVTISVDTSQNQFSLKLSSVTAADTAVYYCARDRGHYYGMDVWGQGTTVTVSS VL: DIQMTQSPSSVSASVGDRVTITCRASQGSSSWFAWYQQKPGKAPKLLIYAASSLQSGVPSRFSGSGSGTDFTLTISSLQPEDFATYYCQQANSFPFTFGPGTKVDIK | 186
Antibody E (antibody, V domains shown) VH: QVQLVESGGGVVQPGRSLRLSCAASGFTFSSYGMHWVRQAPGKGLEWVAVIWYDGSNEYYADSVKGRFTISRDNSKNTLYLQMNSLRAEDTAVYYCARDRGYTSSWYPDAFDIWGQGTMVTVSS VL: QSVLTQPPSVSGAPGQRVTISCTGSSSNTGAGYDVHWYQQVPGTAPKLLIYGSGNRPSGVPDRFSGSKSGTSASLAITGLQAEDEADYYCQSYDSSLSGWVFGGGTRLTVL | 54
Antibody B (antibody, V domains shown, also called VH9/VL9) VH: QVQLQESGPGLVKPSQTLSLTCTVSGGSISSGGYYWSWIRQHPGKGLEWIGHIHYSGNTYYNPSLKSRVTISVDTSKNQFSLKLSSVTAADTAVYYCAKNRGFYYGMDVWGQGTTVTVSS VL: DIQMTQSPSSVSASVGDRVTITCRASQVISSWLAWYQQKPGKAPSLLIYAASSLQSGVPSRFSGSVSGTDFTLTISSLQPEDFATYYCQQANSFPFTFGPGTKVDFK | 161
Antibody G (antibody, V domains shown, also called VH12/VL12) VH: QVQLQESGPRLVKPSETLSLTCTVSGDSISSYFWSWIRQPPGKGLEWLGYIYYSGSTNYNPSLKSRVTISIDTSKNQFSLKLSSVTAADTAVYYCTRDRGSYYGSDYWGQGTLVTVSS VL: DIQMTQSPSSVSASVGDRVTITCRAGQVISSWLAWYQQKPGKAPKLLIYAASSLQSGVPSRFSGSGSGTDFTLTISSLQPDDFATYYCQQATSFPLTFGGGTKVEIK | 93

FYI, the data here is from patent US20200181255A1.
